FYI, the data here is from PubChem BioAssay.

composite z-score values for the molecules below.
- System: Noggin (protein binding on small-molecule microarray)
- procedure text: Noggin binders on small-molecule microarray, primary screen, biochemical, 635/667 nm fluorescence (AID 1095);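 also: score merges 667 nm feature fluorescence with signal to noise over triplicate slides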
- reported conditions: 635 nm fluorescence, higher = more signal
Number only, please.

Worked examples, 2 molecules total:
test smiles | quantity name | meas value
COc1cc2c(cc1O)C=[N+](Cc1cccc(OC(F)(F)F)c1)CC2 | composite z-score | -0.0304
C=CCOC(=O)[C@@H]1[C@H]2C(=O)O[C@H](c3ccccc3)[C@H](c3ccccc3)N2[C@H](c2ccc(OCCOC(=O)[C@@H]3C[C@@H]4C(=O)N5CCC[C@H]5C(=O)N4[C@@H]3c3ccc(O)cc3)cc2)[C@@]12C(=O)Nc1ccc(I)cc12 | composite z-score | 1.51

Now consider a different molecule.
For the molecule shown here, `O=C(NCc1ccccc1)[C@@]1(Cc2ccccc2)N=C(c2ccc(OCCCO)cc2)O[C@H]1c1ccccc1` , give the reported composite z-score.
-0.595

###

- Tested on: Sam68 (KHDRBS1)
- procedure text: Sam68 small-molecule binders, primary screen, biochemical, small-molecule microarray, 635 nm fluorescence (AID 1125);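 also: score merges 667 nm channel intensity with signal to noise over triplicate slides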
- reported conditions: small-molecule microarray binding, higher = more signal
Record t whenever composite z-score is at 1 or higher; record f when lower.

Take a look at these entries with their results.
molecule | assigned label
CCCCCCC#C[Si](O[C@H](c1ccccc1)c1cn([C@H](CO)Cc2ccccc2)nn1)(C(C)C)C(C)C | f
O=C1OCCC=C[C@H]2OC34C=CCN(CCN5CCOCC5)C(=O)[C@H]3N(CCCCCCO)C(=O)[C@@H]4C12 (stereo partly specified) | f
C=C(CCCC)C(=O)CC[C@@H](OC(=O)c1cccnc1)c1ccc(CO)o1 | t
O=C1c2ccccc2[C@](Cc2ccccc2I)(C(=O)NC2CC2)[C@H](c2ccc(CO)cc2)N1C1CCCCC1 | t
C#CCN(CC=C(C)C)[C@H](CO)c1ccccc1 | f

Please check the record `COC(=O)[C@@]1(Cc2ccc(F)cc2)[C@H]2c3cc(C(=O)N4CCCC4)n(Cc4ccc(C)o4)c3C[C@H]2CN1C(=O)c1ccccc1` and state if its composite z-score is at or above 1.
f

// query: `COC(=O)[C@@]1(Cc2ccc(OC)cc2)[C@H]2c3cc(C(=O)N4CCCC4)n(Cc4ccc(OC)c(OC)c4)c3C[C@H]2CN1C(=O)c1ccccc1`
t

// query: C=C(C)C1C(=C)CN([C@H](CO)c2ccccc2)C1=O (stereo partly specified)
f

// query: `Cc1ccc(S[C@]2(C(=O)NC3CC3)CC(=O)N(C3Cc4ccccc4C3)[C@@H]2c2ccc(CO)cc2)cc1`
f

// query: CC1(C)[C@@H]2CC(C(O)C3C=CC4C(=O)N(c5ccccc5)C(=O)C4N3Nc3ccccc3)=C[C@H]1C2 (stereo partly specified)
f

// query: `C=CC[C@@]1(C(=O)NCc2ccccc2)N=C(c2ccc(OCCCO)cc2)O[C@@H]1c1ccccc1N=[N+]=[N-]`
t

// query: `C#CCNC(=O)[C@H](Cc1ccccc1)NC(=O)CCC(=O)O`
f

// query: `COC(=O)[C@@]1(Cc2ccc(F)cc2)[C@H]2c3cc(C(=O)N(C)C)n(CC4CC4)c3C[C@H]2CN1C(=O)c1ccccc1`
t

// query: CCCCN1CC=CC23O[C@@H]4C=CCOC(=O)[C@@H]4[C@H]2C(=O)N(CCCCCO)[C@@H]3C1=O (stereo partly specified)
f

// query: `COc1ccc([Si](C)(C)[C@H]2[C@H](CC(=O)N3CCC[C@H]3CO)O[C@@]3(C(=O)N(Cc4cccc(N5C(=O)c6cccc7cccc5c67)c4)c4ccccc43)[C@@H]2C)cc1`
t

// query: `CN1C(=O)[C@]2(Cc3ccccc3)N=C(c3ccc(OCCCO)cc3)O[C@@H]2c2ccccc21`
t

###

- procedure text: basal HepG2 mitochondrial membrane potential changes, profiling panel, cell-based, JC-1 fluorescence, 24 h, 100 nL compound (AID 1167); also: test concentration not given here
- reported conditions: higher = more signal
quantity name: z-score

Worked examples, 3 compounds total:
test smiles | z-score
C=CCOC(=O)[C@H]1[C@@H]2C(=O)O[C@@H](c3ccccc3)[C@@H](c3ccccc3)N2[C@@H](c2ccc(OCCOC(=O)[C@@H]3C[C@@H]4C(=O)N5CCC[C@H]5C(=O)N4[C@@H]3c3cccc(OCCO)c3)cc2)[C@]12C(=O)Nc1ccccc12 | -1.41
O=C(NCC(F)(F)F)[C@@H]1c2ccccc2C(=O)N(C2CCCCC2)[C@H]1c1ccc(CO)cc1 | 0.912
O=C1O[C@H](c2ccccc2)[C@H](c2ccccc2)N2[C@H]1[C@@H](C(=O)Nc1nc3ccccc3s1)[C@]1(C(=O)Nc3ccc(C#CCCO)cc31)[C@H]2c1ccc(OCCO)cc1 | -3.28

For the compound shown here, `CC(=O)NCCCC[C@@H]1NC(=O)[C@@H]2C[C@H](C(=O)NCCCCCCNC(=O)CS)[C@H](c3cccc(OCCO)c3)N2C1=O` , give the reported z-score.
-0.387

###

- procedure text: E. coli acrAB mutant growth effects, primary screen, E. coli filamentation inducers, strain DRC39, OD650, 48 h (AID 1179);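 also: screen aims at cell division blockers that make cells filament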
- reported conditions: E. coli DRC39 delta-acrAB growth, higher = more signal, called active from +8 up or from −8 down
z-score values for the compounds below.
Number only, please.

compound | quantity name | meas value
C=CC[C@]1(C(=O)NCCCOC)N=C(c2ccc(OCCCO)cc2)O[C@H]1c1ccccc1N=[N+]=[N-] | z-score | -0.615

For the compound shown here, COc1ccc(NN2C(C(O)c3ccc([N+](=O)[O-])cc3)C=CC3C(=O)N(C4CCCCC4)C(=O)C32)cc1 (configuration not stated) , give the reported z-score.
0.523

###

- procedure text: CREB reporter modulators without forskolin, primary screen, cell-based, PC12, CRE-LacZ reporter, unstimulated (AID 1145)
- reported conditions: no forskolin, luminescence, 4.5 h, higher = more signal, called active from +8 up or from −8 down
Record 1.0 whenever z-score is at 1 or higher; record 0.0 when lower.

Take a look at these entries with their results.
molecule | assigned label
O=C1O[C@H](c2ccccc2)[C@H](c2ccccc2)N2[C@H]1[C@@H](C(=O)N1CCN(c3ncccn3)CC1)[C@]1(C(=O)Nc3ccc(C#CC4=CCCCC4)cc31)[C@H]2c1ccc(O)cc1 | 0.0
CC(C)C[C@@H]1NC(=O)[C@H]2C[C@@H](C(=O)NCCCCCCN)[C@@H](c3ccc(O)cc3)N2C1=O | 0.0
COC(=O)C(CC#Cc1ccc2c(c1)[C@]1(C(=O)N2)[C@H](C(=O)O)[C@H]2C(=O)O[C@H](c3ccccc3)[C@H](c3ccccc3)N2[C@@H]1c1ccc(O)cc1)C(=O)OC | 0.0
CCCC[C@H]1OB(O)C[C@H]2C1=C(COc1ccccc1)C[C@H]1C(=O)N(C)C(=O)[C@H]12 | 1.0
O=C1C2C=CC(C(O)C(c3ccccc3)c3ccccc3)N(n3cnnc3)C2C(=O)N1Cc1ccccc1 (configuration not stated) | 0.0

Please check the record `[N-]=[N+]=Nc1ccccc1C[C@]1(C(N)=O)N=C(c2ccc(OCCCO)cc2)O[C@H]1c1ccccc1` and state if its z-score is at or above 1.
1.0

// query: `COCC(=C=CC[C@@H](O)c1ccccc1OCCO)C[C@@H](O)c1cc(Cl)cc(Cl)c1O`
1.0

###

- procedure text: small-molecule microarray binders of probe aWnt5a, primary screen, biochemical, biotinylated probe, 635/667 nm fluorescence (AID 1113);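 also: score merges 667 nm fluorescence intensity with signal-to-noise per printed feature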
- reported conditions: higher = more signal
composite z-score values for the compounds below.
Number only, please.

Worked examples, 6 compounds total:
test smiles | composite z-score
COCCOC(=O)N1C(=O)[C@@]2(c3cc(C#CCCO)ccc31)[C@H](c1ccc(OCCO)cc1)N1[C@H](c3ccccc3)[C@H](c3ccccc3)OC(=O)[C@H]1[C@@H]2C(=O)N1CCN(c2ncccn2)CC1 | -0.131
C=CCOC(=O)[C@H]1[C@@H]2C(=O)O[C@@H](c3ccccc3)[C@@H](c3ccccc3)N2[C@@H](c2ccc(OCCOC(=O)[C@@H]3C[C@@H]4C(=O)N5CCC[C@H]5C(=O)N4[C@@H]3c3cccc(OCCO)c3)cc2)[C@]12C(=O)Nc1ccccc12 | 0.0079
COC(=O)[C@@]1(Cc2ccc(F)cc2)[C@H]2c3cc(C(=O)N(C)C)n(Cc4nc5ccccc5[nH]4)c3C[C@H]2CN1C(=O)c1ccccc1 | 0.178
NCCCCCNC(=O)[C@@H]1C[C@@H]2C(=O)N[C@@H](Cc3ccccc3)C(=O)N2[C@@H]1c1cccc(OCCO)c1 | 0.404
O=C1c2ccccc2[C@@]2(Cc3ccccc3N(CC(F)(F)F)C2=O)[C@H](c2ccc(CO)cc2)N1Cc1ccccc1Cl | -0.166
C=CCN1C(=O)[C@@]2(O[C@@H](CCO)[C@H]([Si](C)(C)c3ccc(OC)cc3)[C@H]2C)c2cc(NC(=O)c3ccc(OC)cc3)ccc21 | -0.199

Now consider a different compound.
For the compound shown here, `COC(=O)[C@@]1(Cc2ccc(OC)cc2)[C@H]2c3cc(C(=O)N(C)C)n(CCN4CNCC4=O)c3C[C@H]2CN1C(=O)c1ccccc1` , give the reported composite z-score.
0.164
